- System: IMC-1 (IL-2 20 ng/mL);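 note: normalised to DMSO-only wells as negative and benzethonium chloride as positive control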
- Assay Explanation: percent inhibition of viability; higher = more inhibition
- Assay Conditions: 72 h; 1000 nM
Experimental Endpoint: percent inhibition of viability (%)

>>> val("CCN1CCN(c2ccc(Nc3cc(N(C)C(=O)Nc4c(Cl)c(OC)cc(OC)c4Cl)ncn3)cc2)CC1 [NVP-BGJ398] (max concentration tested 1000 nM)")
-1.42
>>> val("O=C(O)CC1CC(c2ccccc2)=NO1 (centres undefined) [VGX-1027] (max concentration tested 10000 nM)")
5.66
>>> val("CN(C)C/C=C/C(=O)Nc1cc2c(Nc3ccc(F)c(Cl)c3)ncnc2cc1O[C@H]1CCOC1 [Afatinib] (max concentration tested 1000 nM)")
-7.53
>>> val("COc1cccc2c1C(=O)c1c(O)c3c(c(O)c1C2=O)C[C@@](O)(C(C)=O)C[C@@H]3O[C@H]1C[C@H](N)[C@H](O)[C@H](C)O1 [Daunorubicin] (max concentration tested 1000 nM)")
101
>>> val("COc1cc2c(NC3CCN(C(C)C)CC3)nc(C3CCCCC3)nc2cc1OCCCN1CCCC1 [UNC0638] (max concentration tested 10000 nM)")
4.7
>>> val("O=c1cc(N2CCOCC2)oc2c(-c3ccccc3)cccc12 (max concentration tested 100000 nM)")
-2.01
>>> val("COC(=O)C[C@](O)(CCCC(C)(C)O)C(=O)O[C@@H]1C(OC)=C[C@]23CCCN2CCc2cc4c(cc2[C@H]13)OCO4 [Omacetaxine] (max concentration tested 10000 nM)")
101
>>> val("CC(=O)c1c(C)c2cnc(Nc3ccc(N4CCNCC4)cn3)nc2n(C2CCCC2)c1=O [Palbociclib] (max concentration tested 10000 nM)")
6.43
>>> val("CN(C)C(=O)c1cc2cnc(Nc3ccc(N4CCNCC4)cn3)nc2n1C1CCCC1 [Ribociclib] (max concentration tested 10000 nM)")
0.27
>>> val("CCOc1cc2ncc(C#N)c(Nc3ccc(OCc4ccccn4)c(Cl)c3)c2cc1NC(=O)/C=C/CN(C)C [Neratinib] (max concentration tested 1000 nM)")
1.07
>>> val("C=CC(=O)Nc1cc2c(Nc3ccc(F)c(Cl)c3)ncnc2cc1OCCCN1CCOCC1 [Canertinib] (max concentration tested 10000 nM)")
-11.9
>>> val("CN1CCN(c2cc(C(=O)Nc3ccc4c(c3)-c3c(c(C(N)=O)nn3-c3ccc(F)cc3)CC4)c(Cl)cn2)CC1 [PHA 408] (max concentration tested 10000 nM)")
2.74
>>> val("COc1cc(Nc2ncc(F)c(Nc3ccc4c(n3)NC(=O)C(C)(C)O4)n2)cc(OC)c1OC [Tamatinib] (max concentration tested 10000 nM)")
-15.5
>>> val("S=c1[nH]cnc2nc[nH]c12 [Mercaptopurine] (max concentration tested 10000 nM)")
21.7
>>> val("C#Cc1cccc(Nc2ncnc3cc4c(cc23)OCCOCCOCCO4)c1 [Icotinib] (max concentration tested 10000 nM)")
1.87
>>> val("CCn1c(-c2nonc2N)nc2cnc(Oc3cccc(NC(=O)c4ccc(OCCN5CCOCC5)cc4)c3)cc21 (max concentration tested 10000 nM)")
14.1
>>> val("COCC1(CO)C(=O)C2CCN1CC2 (centres undefined) [APR-246] (max concentration tested 10000 nM)")
8.76
>>> val("COc1ccc(C[C@H](NC(=O)[C@H](C)NC(=O)CN2CCOCC2)C(=O)N[C@@H](Cc2ccccc2)C(=O)C2(C)CO2)cc1 (stereo in doubt) [ONX-0914] (max concentration tested 10000 nM)")
100
>>> val("CN(c1ncccc1CNc1nc(Nc2ccc3c(c2)CC(=O)N3)ncc1C(F)(F)F)S(C)(=O)=O (max concentration tested 10000 nM)")
2.71
>>> val("Cc1cnc(NC(=O)Nc2cc(Br)c(C)cc2OC[C@@H]2CNCCO2)cn1 [Rabusertib] (max concentration tested 1000 nM)")
9.87
>>> val("Cn1c(=O)c(F)c(Nc2ccc(I)cc2F)c2c(=O)n(C[C@@H](O)CO)cnc21 [TAK-733] (max concentration tested 1000 nM)")
18.9
>>> val("O=C(O)C(=O)O.[NH-][C@@H]1CCCC[C@H]1[NH-].[Pt+2] [Oxaliplatin] (max concentration tested 100000 nM)")
6.16
>>> val("O=C(Nc1cccc(Cl)c1)Nc1ncc(CCNc2ncnc3ccsc23)s1 [SNS-314] (max concentration tested 1000 nM)")
70.4
>>> val("CC(C)C[C@@H](C(=O)N[C@H](C(=O)OC1CCCC1)c1ccccc1)[C@H](O)C(=O)NO [Tosedostat] (max concentration tested 10000 nM)")
-8.8
